experiment: Stability on storage and in water or solvents (TLC and NMR monitoring); format: physicochemical; conditions: stored in dichloromethane at −10° C.; read-out: half-life of decomposition (converted)
measured.quantity: half-life

Looking up CC(C)C[C@@H](C(=O)O)N(Cl)Cl [N′N′-dichloro-leucine, N,N-dichloro-L-leucine, reference compound] , I found its half-life recorded as ~1 h
